- assayInfo: Inhibition of TNP-ADP binding to SERCA (unknown origin) by UV dual-wavelength spectrophotometer
- Design: species or system Homo sapiens
pIC50: −log10 of the molar value.
observationType: pIC50

INSERT INTO measurements (structure, observationtype, valuereported) VALUES
  ('CC(C)(O)[C@H]1O[C@H]2CC[C@@]3(C)[C@@](O)(CC[C@H]4Cc5c([nH]c6ccccc56)[C@@]43C)C2=CC1=O', 'pIC50', 5.30);
